Biological target: EKC/KEOPS complex subunit TP53RK (Homo sapiens, UniProt Q96S44); also: in the data inactive means no Kd found up to 30 µM
Sequence (Q96S44 whole entry, one chain of several): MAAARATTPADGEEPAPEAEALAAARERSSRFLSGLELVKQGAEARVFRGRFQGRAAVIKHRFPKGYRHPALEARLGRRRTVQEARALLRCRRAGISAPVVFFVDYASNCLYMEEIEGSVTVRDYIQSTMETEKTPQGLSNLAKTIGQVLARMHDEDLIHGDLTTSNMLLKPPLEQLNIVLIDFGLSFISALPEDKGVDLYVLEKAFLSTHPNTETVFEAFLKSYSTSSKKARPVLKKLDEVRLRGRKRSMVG
Activity calls are given as the source filed them.
# valid calls are active, inactive; nothing else

Solved entries (count: 4):
compound | experimental.system | qualitative.label
NC[C@@](O)(c1ccc(Cl)cc1)c1ccc(-c2cn[nH]c2)cc1 [AT-13148] | EKC/KEOPS complex subunit TP53RK (Homo sapiens, UniProt Q96S44) | inactive
CNC(=O)c1cccc(-c2ccc3c(N4CCOC[C@@H]4C)nc(N4CCOC[C@@H]4C)nc3n2)c1 [VISTUSERTIB] | EKC/KEOPS complex subunit TP53RK (Homo sapiens, UniProt Q96S44) | inactive
COc1cccc(Nc2ncnn3ccc(CN4CC[C@@H](N)[C@H](O)C4)c23)c1 [BMS-690514] | EKC/KEOPS complex subunit TP53RK (Homo sapiens, UniProt Q96S44) | inactive
CC(C)(O)CC(=O)NCCn1ccc2ncnc(Nc3ccc(Oc4cccc(C(F)(F)F)c4)c(Cl)c3)c21 [TAK-285] | EKC/KEOPS complex subunit TP53RK (Homo sapiens, UniProt Q96S44) | inactive

Inquiry: What was the test verdict on CCN1CCN(Cc2ccc(Nc3ncc(F)c(-c4cc(F)c5nc(C)n(C(C)C)c5c4)n3)nc2)CC1 [ABEMACICLIB] ?
Reply text: inactive

Inquiry: What was the test verdict on C[C@@]1(C(=O)Nc2ccc(F)nc2)CCCN1c1nc(Nc2cc(C3CC3)n[nH]2)c2cccn2n1 [BMS-754807] ?
Reply text: inactive

* * *

Molecular target: UniProt P23458
Sequence (P23458 whole entry): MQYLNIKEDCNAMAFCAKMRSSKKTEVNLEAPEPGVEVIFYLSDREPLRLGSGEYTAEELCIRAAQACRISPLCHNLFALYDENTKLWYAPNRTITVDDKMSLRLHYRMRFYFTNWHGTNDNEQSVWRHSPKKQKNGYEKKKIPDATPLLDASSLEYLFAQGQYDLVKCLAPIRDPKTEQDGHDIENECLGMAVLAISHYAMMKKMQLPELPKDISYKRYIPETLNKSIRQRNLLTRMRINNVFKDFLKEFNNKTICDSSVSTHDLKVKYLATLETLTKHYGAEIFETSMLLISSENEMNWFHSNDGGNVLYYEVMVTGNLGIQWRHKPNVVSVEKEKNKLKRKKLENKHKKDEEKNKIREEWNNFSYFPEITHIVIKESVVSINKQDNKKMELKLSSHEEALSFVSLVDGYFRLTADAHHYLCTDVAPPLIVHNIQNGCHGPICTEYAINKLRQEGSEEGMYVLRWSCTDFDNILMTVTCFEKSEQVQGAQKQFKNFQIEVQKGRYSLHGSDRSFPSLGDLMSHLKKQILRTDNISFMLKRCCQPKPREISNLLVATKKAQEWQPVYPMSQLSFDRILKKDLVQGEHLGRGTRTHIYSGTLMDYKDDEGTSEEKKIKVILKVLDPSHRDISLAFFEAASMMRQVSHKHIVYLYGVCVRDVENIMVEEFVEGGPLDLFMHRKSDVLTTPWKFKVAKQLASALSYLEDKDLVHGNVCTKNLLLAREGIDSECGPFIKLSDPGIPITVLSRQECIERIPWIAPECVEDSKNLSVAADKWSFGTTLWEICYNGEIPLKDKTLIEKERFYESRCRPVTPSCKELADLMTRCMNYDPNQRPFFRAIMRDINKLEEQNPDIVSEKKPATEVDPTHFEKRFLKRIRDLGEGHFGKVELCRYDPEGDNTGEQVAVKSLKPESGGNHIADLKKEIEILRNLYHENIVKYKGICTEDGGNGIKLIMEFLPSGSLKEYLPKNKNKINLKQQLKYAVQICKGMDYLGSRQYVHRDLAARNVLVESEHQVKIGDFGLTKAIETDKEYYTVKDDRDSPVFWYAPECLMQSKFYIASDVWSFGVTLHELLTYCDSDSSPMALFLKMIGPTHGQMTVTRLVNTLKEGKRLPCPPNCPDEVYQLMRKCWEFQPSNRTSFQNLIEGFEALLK
Calls of active or inactive are those of the source.
# valid calls are class 1 (active), class 0 (inactive); nothing else

Solved entries (count: 4):
molecule | qualitative.label
O=S(=O)(c1cccc2cnccc12)N1CCCNCC1 | class 0
NC[C@@](O)(c1ccc(Cl)cc1)c1ccc(-c2cn[nH]c2)cc1 | class 0
CCOc1ccn(-c2ccc(F)cc2)c(=O)c1C(=O)Nc1ccc(Oc2ccnc(N)c2Cl)c(F)c1 | class 0
Cc1cc(C(=O)Nc2cc(Oc3ccc4nc(NC(=O)C5CC5)cn4n3)ccc2C)n(C)n1 | class 0

Inquiry: What was the test verdict on CC1(COc2ccc3c(c2)ncn3-c2ccc3cccc(N4CCC(N)CC4)c3n2)COC1 ?
Reply text: class 0

Inquiry: What was the test verdict on CCc1cc2c(cc1N1CCC(N3CCOCC3)CC1)C(C)(C)c1[nH]c3cc(C#N)ccc3c1C2=O ?
Reply text: class 0

Inquiry: What was the test verdict on c1cc(OCCN2CCCCC2)cc(-c2n[nH]c3ccc(-c4nc[nH]n4)cc23)c1 ?
Reply text: class 0

Inquiry: What was the test verdict on CCN1CCN(Cc2ccc(Nc3ncc(F)c(-c4cc(F)c5nc(C)n(C(C)C)c5c4)n3)nc2)CC1 ?
Reply text: class 0

Inquiry: What was the test verdict on Cn1c(=O)c(F)c(Nc2ccc(I)cc2F)c2c(=O)n(C[C@@H](O)CO)cnc21 ?
Reply text: class 0

Inquiry: What was the test verdict on COc1ccc(-c2ccc3ncc4c(c3c2)n(-c2ccc(N3CCNCC3)c(C(F)(F)F)c2)c(=O)n4C)cn1 [BGT-226 FREE BASE] ?
Reply text: class 0

Inquiry: What was the test verdict on C=CCn1c(=O)c2cnc(Nc3ccc(N4CCN(C)CC4)cc3)nc2n1-c1cccc(C(C)(C)O)n1 ?
Reply text: class 0

Inquiry: What was the test verdict on Cc1cc(Nc2nc(N[C@@H](C)c3ncc(F)cn3)ncc2Cl)n[nH]1 ?
Reply text: class 0

Inquiry: What was the test verdict on O[C@H]1CC[C@H](Nc2ncc3nc(Nc4c(F)cc(F)cc4F)n([C@H]4CCOC4)c3n2)CC1 ?
Reply text: class 0

Inquiry: What was the test verdict on FC(F)(F)c1ccc(CNc2ccc(Cc3c[nH]c4ncc(Cl)cc34)cn2)cn1 ?
Reply text: class 0

Inquiry: What was the test verdict on CN(c1ncccc1CNc1nc(Nc2ccc3c(c2)CC(=O)N3)ncc1C(F)(F)F)S(C)(=O)=O ?
Reply text: class 0

Inquiry: What was the test verdict on COc1cccc2cc(-c3nc([C@H]4CC[C@H](C(=O)O)CC4)n4ncnc(N)c34)[nH]c12 ?
Reply text: class 0

Inquiry: What was the test verdict on O=C(O)c1ccc2c(c1)nc(Nc1cccc(Cl)c1)c1ccncc12 ?
Reply text: class 0

* * *

Target: STE20-like serine/threonine-protein kinase (Homo sapiens); also: in the data inactive means no Kd found up to 30 µM
Active and inactive are the calls of the source.
Consider the following compounds and their measured Kd readings.

// known answers, use as guide
compound | result.value
Cn1c(=O)c(F)c(Nc2ccc(I)cc2F)c2c(=O)n(C[C@@H](O)CO)cnc21 [TAK-733] | > 30 µM (inactive)
Cc1cc(-c2cc(OC(=O)c3ccccc3)ccc2Cl)cc2nnc(Nc3ccc(OCCN4CCCC4)cc3)nc12 [TG100-801] | > 30 µM (inactive)
CC1(C)CNc2cc(NC(=O)c3cccnc3NCc3ccncc3)ccc21 [MOTESANIB] | > 30 µM (inactive)

Field: next compound
Inquiry: Which value of Kd has been reported for O=C(NOC[C@H](O)CO)c1ccc(F)c(F)c1Nc1ccc(I)cc1F [MIRDAMETINIB] in the records?
Reply text: > 30 µM (inactive)

* * *

Target: Ribosomal protein S6 kinase alpha-6 (Homo sapiens, UniProt Q9UK32); also: in the data inactive means no Kd found up to 30 µM
Sequence (Q9UK32 whole entry): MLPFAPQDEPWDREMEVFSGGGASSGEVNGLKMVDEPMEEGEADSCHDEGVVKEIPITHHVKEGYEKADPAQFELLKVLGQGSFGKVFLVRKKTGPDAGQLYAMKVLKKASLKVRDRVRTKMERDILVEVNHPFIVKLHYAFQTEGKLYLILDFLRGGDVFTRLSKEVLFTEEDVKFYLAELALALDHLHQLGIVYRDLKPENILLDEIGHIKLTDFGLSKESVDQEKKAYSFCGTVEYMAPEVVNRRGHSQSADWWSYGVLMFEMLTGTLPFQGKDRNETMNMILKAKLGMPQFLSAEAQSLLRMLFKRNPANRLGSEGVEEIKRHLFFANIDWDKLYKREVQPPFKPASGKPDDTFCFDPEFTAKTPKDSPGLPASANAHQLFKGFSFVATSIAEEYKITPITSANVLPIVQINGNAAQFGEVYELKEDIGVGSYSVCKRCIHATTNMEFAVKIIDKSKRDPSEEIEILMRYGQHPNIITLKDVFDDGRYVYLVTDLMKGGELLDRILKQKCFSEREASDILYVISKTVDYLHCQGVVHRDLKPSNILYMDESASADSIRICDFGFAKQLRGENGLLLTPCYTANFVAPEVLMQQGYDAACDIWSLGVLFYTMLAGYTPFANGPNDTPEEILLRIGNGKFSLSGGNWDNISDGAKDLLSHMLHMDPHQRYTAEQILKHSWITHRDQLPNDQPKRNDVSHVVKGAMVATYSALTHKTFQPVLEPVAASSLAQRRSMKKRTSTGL
Calls of active or inactive are those of the source.
# valid calls are active, inactive; nothing else

Solved entries (count: 3):
molecule | qualitative.label
CC(C)(O)CC(=O)NCCn1ccc2ncnc(Nc3ccc(Oc4cccc(C(F)(F)F)c4)c(Cl)c3)c21 | inactive
O=C(Nc1ccc(OC(F)(F)F)cc1)c1sccc1NCc1ccnc2ccccc12 | inactive
Cn1c(=O)c(F)c(Nc2ccc(I)cc2F)c2c(=O)n(C[C@@H](O)CO)cnc21 | inactive

Inquiry: What was the test verdict on Cc1c(NC(=O)OC[C@@H]2COCCN2)cn2ncnc(Nc3ccc4c(cnn4Cc4cccc(F)c4)c3)c12 ?
Reply text: inactive

Inquiry: What was the test verdict on COc1cc2ncnc(Nc3ccc(F)c(Cl)c3)c2cc1NC(=O)/C=C/CN1CCCCC1 [DACOMITINIB ANHYDROUS] ?
Reply text: inactive

Inquiry: What was the test verdict on O=c1[nH]c([C@@H]2CCCN2)nc2c1oc1ccc(Cl)cc12 ?
Reply text: inactive

Inquiry: What was the test verdict on COc1ccc(-c2ccc3ncc4c(c3c2)n(-c2ccc(N3CCNCC3)c(C(F)(F)F)c2)c(=O)n4C)cn1 [BGT-226 FREE BASE] ?
Reply text: inactive

Inquiry: What was the test verdict on Cc1ccc(C(=O)Nc2ccc(Oc3cc4cnn(C)c4cc3-c3cn[nH]c3)c(F)c2)c(=O)n1-c1ccc(F)cc1 ?
Reply text: inactive

* * *

Target: Serine/threonine-protein kinase B-raf (Homo sapiens); also: in the data inactive means no Kd found up to 30 µM
Sequence (P15056 whole entry): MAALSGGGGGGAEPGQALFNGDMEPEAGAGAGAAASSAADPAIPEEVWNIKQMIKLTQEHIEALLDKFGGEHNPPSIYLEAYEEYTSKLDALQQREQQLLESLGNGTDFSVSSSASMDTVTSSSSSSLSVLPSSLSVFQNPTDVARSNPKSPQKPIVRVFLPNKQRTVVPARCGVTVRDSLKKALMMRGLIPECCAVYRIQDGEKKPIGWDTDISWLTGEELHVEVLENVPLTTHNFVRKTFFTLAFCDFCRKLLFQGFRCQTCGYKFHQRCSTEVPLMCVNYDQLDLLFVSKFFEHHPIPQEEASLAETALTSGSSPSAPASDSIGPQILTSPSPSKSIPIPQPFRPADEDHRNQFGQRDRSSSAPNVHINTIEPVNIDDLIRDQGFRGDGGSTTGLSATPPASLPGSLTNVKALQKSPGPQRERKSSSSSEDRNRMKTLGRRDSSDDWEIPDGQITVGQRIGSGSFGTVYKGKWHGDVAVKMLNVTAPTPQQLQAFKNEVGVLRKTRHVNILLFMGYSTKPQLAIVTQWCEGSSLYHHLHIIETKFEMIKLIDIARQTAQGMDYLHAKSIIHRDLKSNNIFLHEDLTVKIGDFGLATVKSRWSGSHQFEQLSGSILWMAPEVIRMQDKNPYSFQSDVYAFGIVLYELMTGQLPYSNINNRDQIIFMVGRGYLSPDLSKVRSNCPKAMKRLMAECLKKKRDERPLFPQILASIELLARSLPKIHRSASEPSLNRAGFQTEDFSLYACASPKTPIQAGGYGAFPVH
Calls of active or inactive are those of the source.
Consider the following molecules and their measured Kd readings.

molecule | Kd
N#CCNC(=O)c1ccc(-c2ccnc(Nc3ccc(N4CCOCC4)cc3)n2)cc1 | > 30 µM (inactive)

Inquiry: Which value of Kd has been reported for CN1CCN(c2nc(C3=C(c4c[nH]c5ccccc45)C(=O)NC3=O)c3ccccc3n2)CC1 in the records?
Reply text: > 30 µM (inactive)

Inquiry: Which value of Kd has been reported for CNC(=O)c1cccc(-c2ccc3c(N4CCOC[C@@H]4C)nc(N4CCOC[C@@H]4C)nc3n2)c1 in the records?
Reply text: > 30 µM (inactive)

* * *

Target: Cyclin-dependent kinase 5 (Homo sapiens, UniProt Q00535); also: in the data inactive means no Kd found up to 30 µM
Sequence (Q00535 whole entry): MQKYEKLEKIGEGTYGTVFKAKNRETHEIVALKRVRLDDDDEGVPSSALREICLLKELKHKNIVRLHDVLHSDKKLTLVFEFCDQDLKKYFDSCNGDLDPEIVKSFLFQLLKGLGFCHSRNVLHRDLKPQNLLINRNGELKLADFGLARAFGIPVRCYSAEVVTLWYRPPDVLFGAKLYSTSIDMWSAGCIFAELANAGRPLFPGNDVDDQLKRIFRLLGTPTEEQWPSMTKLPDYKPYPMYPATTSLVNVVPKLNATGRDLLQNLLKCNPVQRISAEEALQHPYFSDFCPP
The source made the active and inactive calls.
# valid calls are true for active, false for inactive; nothing else

Solved entries (count: 5):
compound | qualitative.label
C[C@@H]1COC(Nc2ccc3ncnc(Nc4ccc(OCc5nccs5)c(Cl)c4)c3c2)=N1 | false
C=CC(=O)Nc1cccc(Nc2nc(Nc3ccc(N4CCN(C(C)=O)CC4)cc3OC)ncc2C(F)(F)F)c1 | false
COc1cc2ncnc(Nc3ccc(O)cc3)c2cc1OC | false
CC(C)CC(=O)Nc1[nH]nc2c1CN(C(=O)C1CCN(C)CC1)C2(C)C | true
O=C(NOC[C@H](O)CO)c1ccc(F)c(F)c1Nc1ccc(I)cc1F | false

Inquiry: What was the test verdict on COc1cc2ncnc(Nc3ccc(F)c(Cl)c3)c2cc1NC(=O)/C=C/CN1CCCCC1 [DACOMITINIB ANHYDROUS] ?
Reply text: false

Inquiry: What was the test verdict on COc1cc(F)c(F)c(Nc2ccc(I)cc2F)c1NS(=O)(=O)C1(C[C@H](O)CO)CC1 ?
Reply text: false

* * *

Calls of active or inactive are those of the source.
Ribosomal protein S6 kinase alpha-5 (Homo sapiens) Kd data; also: in the data inactive means no Kd found up to 30 µM
Sequence (O75582 whole entry): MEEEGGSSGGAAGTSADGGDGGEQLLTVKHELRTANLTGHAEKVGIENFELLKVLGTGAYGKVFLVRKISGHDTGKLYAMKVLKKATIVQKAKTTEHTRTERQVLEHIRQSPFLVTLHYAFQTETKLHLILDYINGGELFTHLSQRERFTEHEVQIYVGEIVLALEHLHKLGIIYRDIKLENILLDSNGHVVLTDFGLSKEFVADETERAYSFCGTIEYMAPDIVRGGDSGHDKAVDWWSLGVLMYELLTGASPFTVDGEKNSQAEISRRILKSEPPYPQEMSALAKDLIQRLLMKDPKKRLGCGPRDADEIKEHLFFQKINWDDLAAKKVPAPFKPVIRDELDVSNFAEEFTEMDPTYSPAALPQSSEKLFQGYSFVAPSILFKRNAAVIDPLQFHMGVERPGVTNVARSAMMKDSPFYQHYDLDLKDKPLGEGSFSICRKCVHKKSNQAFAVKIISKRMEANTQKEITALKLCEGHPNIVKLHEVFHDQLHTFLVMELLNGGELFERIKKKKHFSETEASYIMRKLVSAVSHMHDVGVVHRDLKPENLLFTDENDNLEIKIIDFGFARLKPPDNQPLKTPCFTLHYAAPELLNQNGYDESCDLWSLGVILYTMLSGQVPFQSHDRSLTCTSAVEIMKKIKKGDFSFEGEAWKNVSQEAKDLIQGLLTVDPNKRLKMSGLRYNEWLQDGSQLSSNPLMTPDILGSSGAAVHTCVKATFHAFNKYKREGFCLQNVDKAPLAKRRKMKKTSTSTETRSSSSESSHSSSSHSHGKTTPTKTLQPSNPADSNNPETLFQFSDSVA

// known answers, use as guide
compound | experimental.system | assay.metric | result.value
Cc1c(Cn2c(C)nc3c(C(=O)O)cc(N4CCOCC4)cc32)cccc1C(F)(F)F [GSK-2636771] | Ribosomal protein S6 kinase alpha-5 (Homo sapiens) | Kd | > 30 µM (inactive)
Cn1c(=O)c(F)c(Nc2ccc(I)cc2F)c2c(=O)n(C[C@@H](O)CO)cnc21 [TAK-733] | Ribosomal protein S6 kinase alpha-5 (Homo sapiens) | Kd | > 30 µM (inactive)

Inquiry: Test system Ribosomal protein S6 kinase alpha-5 (Homo sapiens); read-out Kd; what value for COc1cc2ncnc3c2cc1OCCCCCN(C)Cc1ccc(Br)cc1N3 [JNJ-26483327] ?; also: in the data inactive means no Kd found up to 30 µM
Reply text: > 30 µM (inactive)

FYI, the data here is from ChEMBL document CHEMBL3991601.
